Target: HscPheRS (human cytosolic phenylalanyl-tRNA synthetase, alpha subunit) (Homo sapiens, UniProt Q9Y285)
Sequence (Q9Y285 2-508): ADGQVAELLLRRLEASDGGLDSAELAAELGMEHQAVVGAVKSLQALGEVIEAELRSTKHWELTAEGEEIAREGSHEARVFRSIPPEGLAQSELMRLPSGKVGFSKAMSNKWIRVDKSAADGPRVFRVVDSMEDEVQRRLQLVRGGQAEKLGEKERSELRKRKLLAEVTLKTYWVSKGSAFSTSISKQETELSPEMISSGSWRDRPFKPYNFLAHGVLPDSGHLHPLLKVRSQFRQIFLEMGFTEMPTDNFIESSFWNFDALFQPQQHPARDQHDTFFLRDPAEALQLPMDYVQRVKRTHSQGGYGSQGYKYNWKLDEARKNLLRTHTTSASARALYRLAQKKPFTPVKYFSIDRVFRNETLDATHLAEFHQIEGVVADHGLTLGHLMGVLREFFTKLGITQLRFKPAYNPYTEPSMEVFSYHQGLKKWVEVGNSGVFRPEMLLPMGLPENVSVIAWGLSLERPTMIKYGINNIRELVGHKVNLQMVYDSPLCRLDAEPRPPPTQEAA
Sequence (Q9NSD9 whole entry partner): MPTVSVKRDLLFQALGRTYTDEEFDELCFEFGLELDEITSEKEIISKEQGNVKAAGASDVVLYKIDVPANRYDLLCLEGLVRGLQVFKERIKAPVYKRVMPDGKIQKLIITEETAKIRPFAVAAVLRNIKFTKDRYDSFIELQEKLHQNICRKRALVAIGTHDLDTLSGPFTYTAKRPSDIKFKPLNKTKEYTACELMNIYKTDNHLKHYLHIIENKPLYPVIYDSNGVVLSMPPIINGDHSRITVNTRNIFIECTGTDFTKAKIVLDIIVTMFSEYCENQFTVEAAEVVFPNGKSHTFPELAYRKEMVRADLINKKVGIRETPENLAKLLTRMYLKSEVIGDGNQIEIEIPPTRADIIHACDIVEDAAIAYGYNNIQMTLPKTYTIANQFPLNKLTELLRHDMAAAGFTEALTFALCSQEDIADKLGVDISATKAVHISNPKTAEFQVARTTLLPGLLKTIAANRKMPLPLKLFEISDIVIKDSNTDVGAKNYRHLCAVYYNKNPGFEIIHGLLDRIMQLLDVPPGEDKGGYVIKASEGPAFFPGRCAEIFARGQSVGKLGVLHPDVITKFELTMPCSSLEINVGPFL
Experiment: malachite green aminoacylation assay with purified enzyme
Type: biochemical
measured_quantity: pIC50
To interpret pIC50, take it as minus log10 of a concentration measured in moles per litre.

Exercise: Field request: pIC50 | item: COc1ccc(NC(=O)N2CCCN3CC[C@H](c4ccc(C#CC5=CCCCC5)cc4)[C@@H]3C2)cc1
Key: 5.45

###

Molecular target: TgcPheRS (Toxoplasma gondii cytosolic phenylalanyl-tRNA synthetase, alpha subunit) (Toxoplasma gondii, UniProt A0A125YPN6+S8EZ50)
Sequence (A0A125YPN6 1-525): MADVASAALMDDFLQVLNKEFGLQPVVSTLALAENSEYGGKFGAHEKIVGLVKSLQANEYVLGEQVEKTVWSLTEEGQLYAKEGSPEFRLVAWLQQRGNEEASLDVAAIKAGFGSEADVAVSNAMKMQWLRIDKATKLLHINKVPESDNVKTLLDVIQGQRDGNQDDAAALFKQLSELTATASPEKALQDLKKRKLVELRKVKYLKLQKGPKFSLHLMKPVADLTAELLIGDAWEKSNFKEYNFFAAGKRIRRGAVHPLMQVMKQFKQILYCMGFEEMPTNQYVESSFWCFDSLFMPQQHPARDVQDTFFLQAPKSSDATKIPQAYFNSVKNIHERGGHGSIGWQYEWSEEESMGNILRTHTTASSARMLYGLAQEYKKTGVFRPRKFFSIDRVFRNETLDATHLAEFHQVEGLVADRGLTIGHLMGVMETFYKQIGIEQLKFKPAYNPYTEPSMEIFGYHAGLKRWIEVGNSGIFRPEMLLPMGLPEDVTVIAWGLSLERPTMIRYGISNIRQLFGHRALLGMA
Sequence (S8EZ50 1-675): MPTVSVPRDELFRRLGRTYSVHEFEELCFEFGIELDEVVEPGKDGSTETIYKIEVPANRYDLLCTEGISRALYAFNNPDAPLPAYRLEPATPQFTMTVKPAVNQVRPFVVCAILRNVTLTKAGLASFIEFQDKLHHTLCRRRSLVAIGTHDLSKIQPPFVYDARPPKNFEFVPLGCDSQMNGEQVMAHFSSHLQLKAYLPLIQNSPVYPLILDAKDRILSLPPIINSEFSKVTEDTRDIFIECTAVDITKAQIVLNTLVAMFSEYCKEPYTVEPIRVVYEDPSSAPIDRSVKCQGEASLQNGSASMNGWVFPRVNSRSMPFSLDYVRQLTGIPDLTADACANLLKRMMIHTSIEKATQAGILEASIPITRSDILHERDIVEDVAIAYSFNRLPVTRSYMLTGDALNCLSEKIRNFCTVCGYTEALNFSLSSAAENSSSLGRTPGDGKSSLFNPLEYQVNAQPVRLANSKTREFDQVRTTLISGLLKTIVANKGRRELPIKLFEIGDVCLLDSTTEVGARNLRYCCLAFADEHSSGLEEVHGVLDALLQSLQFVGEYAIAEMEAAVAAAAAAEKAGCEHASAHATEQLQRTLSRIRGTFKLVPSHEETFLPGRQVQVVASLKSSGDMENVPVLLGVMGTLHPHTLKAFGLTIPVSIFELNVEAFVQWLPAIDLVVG
Experiment: malachite green aminoacylation assay with purified enzyme
Format: biochemical
measured_quantity: pIC50
Scale: negative log10 of molar concentration, which is what pIC50 denotes.

Exercise: Reported pIC50, molecule COc1ccc(NC(=O)N2CCCN3CC[C@H](c4ccc(C#CC5=CCCCC5)cc4)[C@@H]3C2)cc1 : ____
Key: 6.62

###

Target: HscPheRS (human cytosolic phenylalanyl-tRNA synthetase, alpha subunit) (Homo sapiens)
Assay: malachite green aminoacylation assay with purified enzyme
Format: biochemical
Conditions: read-out: BRD7929
measured_quantity: pIC50
Note on units: pIC50 is unitless, being -log10 of a concentration expressed in mol/L.

Exercise: Give recorded pIC50 with HscPheRS (human cytosolic phenylalanyl-tRNA synthetase, alpha subunit) (Homo sapiens) for the following compound: COc1ccc(NC(=O)N2CCCCN3[C@H](CN(C)C)[C@H](c4ccc(C#Cc5ccccc5)cc4)[C@@H]3C2)cc1 [BRD7929]
Key: 4.74
